Documented Bliss excess across a set of molecules
Tested on: HT-1080 (Other Solid Carcinomas)
assay name: Bliss excess, mean over the matrix (fraction); higher = more synergy
measured parameter: Bliss excess

1) COc1cccc(OCCCN)c1-c1cc(Nc2cnc(C#N)cn2)n[nH]1 [Prexasertib] + Cc1cc2ncnn2cc1Nc1ncc2c(n1)n(C1CCOCC1)c(=O)n2C [AZD7648] (first compound max 1 µM, 7x7, partner max 10 µM) ... 0.0234
2) Cn1cnc2c(F)c(Nc3ccc(Br)cc3Cl)c(C(=O)NOCCO)cc21 [Selumetinib] + C[C@@H]1COCCN1C2=NC(=NC(=C2)C3(CC3)[S@](=N)(=O)C)C4=C5C=CNC5=NC=C4 [AZD6738] (first compound max 10 µM, 7x7, partner max 10 µM) ... 0.0553
3) C=CCn1c(=O)c2cnc(Nc3ccc(N4CCN(C)CC4)cc3)nc2n1-c1cccc(C(C)(C)O)n1 [AZD1775] + C[C@@H]1COCCN1C2=NC(=NC(=C2)C3(CC3)[S@](=N)(=O)C)C4=C5C=CNC5=NC=C4 [AZD6738] (first compound max 1 µM, partner max 10 µM) ... 0.0145
4) CC1(C)CCC(CN2CCN(c3ccc(C(=O)NS(=O)(=O)c4ccc(NCC5CCOCC5)c([N+](=O)[O-])c4)c(Oc4cnc5[nH]ccc5c4)c3)CC2)=C(c2ccc(Cl)cc2)C1 [Venetoclax] + C=CCn1c(=O)c2cnc(Nc3ccc(N4CCN(C)CC4)cc3)nc2n1-c1cccc(C(C)(C)O)n1 [AZD1775] (first compound max 1 µM, partner max 1 µM) ... -0.0359
5) Cn1cnc2c(F)c(Nc3ccc(Br)cc3Cl)c(C(=O)NOCCO)cc21 [Selumetinib] + CCN(CCO)CCCOc1ccc2c(Nc3cc(CC(=O)Nc4cccc(F)c4)[nH]n3)ncnc2c1 [AZD2811] (first compound max 10 µM, 7x7, partner max 1 µM) ... -0.0315
6) CN(CCO)CC[C@H](CSc1ccccc1)Nc1ccc(S(=O)(=O)NC(=O)c2ccc(N3CCC([C@@H](O)c4ccccc4-c4ccc(Cl)cc4)CC3)cc2)cc1S(=O)(=O)C(F)(F)F [AZD4320] + CCN(CCO)CCCOc1ccc2c(Nc3cc(CC(=O)Nc4cccc(F)c4)[nH]n3)ncnc2c1 [AZD2811] (first compound max 1 µM, 7x7, partner max 1 µM) ... -0.0046
7) CS(=O)(=O)CCNCc1ccc(-c2ccc3ncnc(Nc4ccc(OCc5cccc(F)c5)c(Cl)c4)c3c2)o1 [Lapatinib] + C[C@@H](Oc1cc(-c2cnn(C3CCNCC3)c2)cnc1N)c1c(Cl)ccc(F)c1Cl [Crizotinib] (first compound max 10 µM, 7x7, partner max 10 µM) ... -0.012

---

System: NAMALWA (Burkitt's Lymphoma)
assay name: Bliss excess, mean over the matrix (fraction); higher = more synergy
measured parameter: Bliss excess

1. N#Cc1cnc(Nc2cc(NC[C@H]3CNCCO3)c(C(F)(F)F)cn2)cn1 [SRA737] + O=c1[nH]cc(F)c(=O)[nH]1 [5-Fluorouracil] (first compound max 10 µM, 7x7, partner max 20 µM) ... 0.0157
2. C[C@@H](Oc1cc(-c2cnn(C3CCNCC3)c2)cnc1N)c1c(Cl)ccc(F)c1Cl [Crizotinib] + CC1=C(C(=CC=C1)Cl)NC(=O)C2=CN=C(S2)NC3=CC(=NC(=N3)C)N4CCN(CC4)CCO [Dasatinib] (first compound max 10 µM, 7x7, partner max 2 µM) ... 0.0586
3. NC1(C(=O)N[C@@H](CCO)c2ccc(Cl)cc2)CCN(c2ncnc3[nH]ccc23)CC1 [Capivasertib] + Cn1cnc2c(F)c(Nc3ccc(Br)cc3Cl)c(C(=O)NOCCO)cc21 [Selumetinib] (first compound max 10 µM, 7x7, partner max 10 µM) ... -0.0231
4. Cn1cnc2c(F)c(Nc3ccc(Br)cc3Cl)c(C(=O)NOCCO)cc21 [Selumetinib] + C=CCn1c(=O)c2cnc(Nc3ccc(N4CCN(C)CC4)cc3)nc2n1-c1cccc(C(C)(C)O)n1 [AZD1775] (first compound max 10 µM, partner max 1 µM) ... -0.0104

---

Tested on: MS-1 (Small Cell Lung Carcinoma)
assay name: combination Emax (second highest fraction inhibited in the dose matrix, 72 h); higher = more inhibition; extreme values may be limits of the assay
measured parameter: combination Emax

1. O=C(c1cc(Cc2n[nH]c(=O)c3ccccc23)ccc1F)N1CCN(C(=O)C2CC2)CC1 [Olaparib] + Cc1c2c(nn1C)CSCc1cc(n(C)n1)CSc1cc(c3ccccc3c1)OCCCc1c(C(=O)O)n(C)c3c-2c(Cl)ccc13 [AZD5991] (first compound max 10 µM, 7x7, partner max 1 µM) ... 0.501
2. Cc1c2c(nn1C)CSCc1cc(n(C)n1)CSc1cc(c3ccccc3c1)OCCCc1c(C(=O)O)n(C)c3c-2c(Cl)ccc13 [AZD5991] + CCN(CCO)CCCOc1ccc2c(Nc3cc(CC(=O)Nc4cccc(F)c4)[nH]n3)ncnc2c1 [AZD2811] (first compound max 1 µM, 7x7, partner max 1 µM) ... 0.48

---

Documented combination Emax across a set of molecules
System: SCC-4 (Oral Cavity Carcinoma)
assay name: combination Emax (second highest fraction inhibited in the dose matrix, 72 h); higher = more inhibition; extreme values may be limits of the assay
measured parameter: combination Emax

1. C[C@@H](Nc1cc(F)cc(F)c1)c1cc(C(=O)N(C)C)cc2c(=O)cc(N3CCOCC3)oc12 [AZD8186] + CC(=O)c1c(C)c2cnc(Nc3ccc(N4CCNCC4)cn3)nc2n(C2CCCC2)c1=O [Palbociclib] (first compound max 10 µM, 7x7, partner max 10 µM) ... 0.327
2. CC1(C)CCC(CN2CCN(c3ccc(C(=O)NS(=O)(=O)c4ccc(NCC5CCOCC5)c([N+](=O)[O-])c4)c(Oc4cnc5[nH]ccc5c4)c3)CC2)=C(c2ccc(Cl)cc2)C1 [Venetoclax] + Cc1cc2ncnn2cc1Nc1ncc2c(n1)n(C1CCOCC1)c(=O)n2C [AZD7648] (first compound max 1 µM, 7x7, partner max 10 µM) ... 0.235
3. CCN(CCO)CCCOc1ccc2c(Nc3cc(CC(=O)Nc4cccc(F)c4)[nH]n3)ncnc2c1 [AZD2811] + C[C@@H]1COCCN1C2=NC(=NC(=C2)C3(CC3)[S@](=N)(=O)C)C4=C5C=CNC5=NC=C4 [AZD6738] (first compound max 1 µM, 7x7, partner max 10 µM) ... 0.633
4. Cc1c2c(nn1C)CSCc1cc(n(C)n1)CSc1cc(c3ccccc3c1)OCCCc1c(C(=O)O)n(C)c3c-2c(Cl)ccc13 [AZD5991] + CC1(C)CCC(CN2CCN(c3ccc(C(=O)NS(=O)(=O)c4ccc(NCC5CCOCC5)c([N+](=O)[O-])c4)c(Oc4cnc5[nH]ccc5c4)c3)CC2)=C(c2ccc(Cl)cc2)C1 [Venetoclax] (first compound max 1 µM, 7x7, partner max 1 µM) ... 0.345
5. COc1cc2ncnc(Nc3ccc(F)c(Cl)c3)c2cc1OCCCN1CCOCC1 [Gefitinib] + CC(C)n1c(=O)n(C)c2cnc3cc(F)c(-c4ccc(OCCCN5CCCCC5)nc4)cc3c21 [AZD1390] (first compound max 10 µM, 7x7, partner max 0.3 µM) ... 0.275
6. C=CCn1c(=O)c2cnc(Nc3ccc(N4CCN(C)CC4)cc3)nc2n1-c1cccc(C(C)(C)O)n1 [AZD1775] + O=C(c1cc(Cc2n[nH]c(=O)c3ccccc23)ccc1F)N1CCN(C(=O)C2CC2)CC1 [Olaparib] (first compound max 1 µM, partner max 10 µM) ... 0.496
7. Cc1c2c(nn1C)CSCc1cc(n(C)n1)CSc1cc(c3ccccc3c1)OCCCc1c(C(=O)O)n(C)c3c-2c(Cl)ccc13 [AZD5991] + C1CN(CCC1(C(=O)N[C@@H](CCO)C2=CC=C(C=C2)Cl)N)C3=NC=NC4=C3C=CN4 [Capivasertib] (first compound max 1 µM, 7x7, partner max 3 µM) ... 0.334
8. NC1(C(=O)N[C@@H](CCO)c2ccc(Cl)cc2)CCN(c2ncnc3[nH]ccc23)CC1 [Capivasertib] + Cn1cnc2c(F)c(Nc3ccc(Br)cc3Cl)c(C(=O)NOCCO)cc21 [Selumetinib] (first compound max 10 µM, 7x7, partner max 10 µM) ... 0.778
9. COc1cccc(OCCCN)c1-c1cc(Nc2cnc(C#N)cn2)n[nH]1 [Prexasertib] + CCc1c2c(nc3ccc(O)cc13)-c1cc3c(c(=O)n1C2)COC(=O)[C@]3(O)CC [SN-38] (first compound max 1 µM, 7x7, partner max 0.3 µM) ... 0.917
10. C[C@@H](Oc1cc(-c2cnn(C3CCNCC3)c2)cnc1N)c1c(Cl)ccc(F)c1Cl [Crizotinib] + CC1=C(C(=CC=C1)Cl)NC(=O)C2=CN=C(S2)NC3=CC(=NC(=N3)C)N4CCN(CC4)CCO [Dasatinib] (first compound max 10 µM, 7x7, partner max 2 µM) ... 0.913
11. COc1cccc(OCCCN)c1-c1cc(Nc2cnc(C#N)cn2)n[nH]1 [Prexasertib] + O=C(c1cc(Cc2n[nH]c(=O)c3ccccc23)ccc1F)N1CCN(C(=O)C2CC2)CC1 [Olaparib] (first compound max 1 µM, 7x7, partner max 10 µM) ... 0.588
12. CN(CCO)CC[C@H](CSc1ccccc1)Nc1ccc(S(=O)(=O)NC(=O)c2ccc(N3CCC([C@@H](O)c4ccccc4-c4ccc(Cl)cc4)CC3)cc2)cc1S(=O)(=O)C(F)(F)F [AZD4320] + CS(=O)(=O)CCNCc1ccc(-c2ccc3ncnc(Nc4ccc(OCc5cccc(F)c5)c(Cl)c4)c3c2)o1 [Lapatinib] (first compound max 1 µM, 7x7, partner max 10 µM) ... 0.942
13. Cc1cc2ncnn2cc1Nc1ncc2c(n1)n(C1CCOCC1)c(=O)n2C [AZD7648] + O=C(c1cc(Cc2n[nH]c(=O)c3ccccc23)ccc1F)N1CCN(C(=O)C2CC2)CC1 [Olaparib] (first compound max 10 µM, 7x7, partner max 10 µM) ... 0.259

All values here come from the supplement of paper PMC11061612.
